# Species on record: Rattus norvegicus
# METHOD: DrugMatrix - Regimen: Daily Repeat
# Format: toxicity, organism-based, Sprague-Dawley
# Parameters: regimen Daily Repeat, gender Male, age 6-8 weeks
# EXPERIMENTAL SETUP: in vivo, iv, 0 mg/kg, 120 h, tissue Plasma, dose level Control, time 5 day, vehicle 100 % SALINE
Starred links: 1 amine or outer side, 2 acyl side, 3 side chain; linkers in the order of their positions; H or OH if unused. Positions of bridges follow the written chain, without caps; N, C: chain ends. Non-standard residues stand in square brackets, D forms with d. Residues, ends and D or L forms follow the SMILES beside them. Chains are numbered I, II in the order given. Actinocin(9to1) = Cc1c2oc3c(C)ccc(C(=O)[*:1])c3nc-2c(C(=O)[*:2])c(N)c1=O; NMeV = CN[C@H](C(=O)O)C(C)C; Sar = CNCC(=O)O
Can you tell me SODIUM for the items I'm about to list?
Give just the numeric value; MEQ/L need not be written.

Asked: What value of SODIUM has been reported for the following compound? Cc1c2oc3c(C)ccc(C(=O)N[C@@H]4C(=O)N[C@H](C(C)C)C(=O)N5CCC[C@H]5C(=O)N(C)CC(=O)N(C)[C@@H](C(C)C)C(=O)O[C@@H]4C)c3nc-2c(C(=O)N[C@@H]2C(=O)N[C@H](C(C)C)C(=O)N3CCC[C@H]3C(=O)N(C)CC(=O)N(C)[C@@H](C(C)C)C(=O)O[C@@H]2C)c(N)c1=O [DACTINOMYCIN] (I: T[dV]P[Sar][NMeV] / II: T[dV]P[Sar][NMeV]; ester I:1-I:C, II:1-II:C; linker I:N-II:N via Actinocin(9to1))
Given back: 142.45

Asked: Check Cc1ccc(N(CC2=NCCN2)c2cccc(O)c2)cc1 too.
Given back: 143.7

Asked: Check CC[C@]1(O)C[C@H]2CN(CCc3c([nH]c4ccccc34)[C@@](C(=O)OC)(c3cc4c(cc3OC)N(C=O)[C@H]3[C@@](O)(C(=O)OC)[C@H](OC(C)=O)[C@]5(CC)C=CCN6CC[C@]43[C@@H]65)C2)C1 too.
Given back: 144.64

Asked: Check COc1cc2c3cc1Oc1cc(ccc1O)C[C@@H]1c4c(cc(OC)c(O)c4Oc4ccc(cc4)C[C@@H]3N(C)CC2)CC[N+]1(C)C.[Cl-] too.
Given back: 142.45

###

Can you tell me GLUCOSE for the items I'm about to list?
# Species on record: Rattus norvegicus
# METHOD: DrugMatrix - Regimen: Daily Repeat
# Assay type: toxicity, organism-based, Sprague-Dawley
# Set-up: regimen Daily Repeat, gender Male, age 6-8 weeks
# EXPERIMENTAL SETUP: in vivo, po, 0 mg/kg, 72 h, tissue Plasma, route oral GAVAGE, dose level Control, time 3 day, […]
Give just the numeric value; mg/dL need not be written.

Asked: What value of GLUCOSE has been reported for the following molecule? C[C@@H]1CN(c2c(F)c(N)c3c(=O)c(C(=O)O)cn(C4CC4)c3c2F)C[C@H](C)N1
Given back: 170

Asked: Check CCOC(=O)C1=C(COCCN)NC(C)=C(C(=O)OC)C1c1ccccc1Cl (centres undefined) too.
Given back: 170

Asked: Check CN(C)c1nc(N(C)C)nc(N(C)C)n1 too.
Given back: 170

Asked: Check Cc1ccc(-c2cc(C(F)(F)F)nn2-c2ccc(S(N)(=O)=O)cc2)cc1 too.
Given back: 160.67

Asked: Check CCC(C)n1ncn(-c2ccc(N3CCN(c4ccc(OCC5COC(Cn6cncn6)(c6ccc(Cl)cc6Cl)O5)cc4)CC3)cc2)c1=O (centres undefined) too.
Given back: 160.67

Asked: Check O=c1oc2ccccc2c(O)c1Cc1c(O)c2ccccc2oc1=O too.
Given back: 142.67

Asked: Check Cc1oncc1C(=O)Nc1ccc(C(F)(F)F)cc1 [LEFLUNOMIDE] too.
Given back: 198.33

Asked: Check CC(C)(Oc1ccc(Cl)cc1)C(=O)O too.
Given back: 151.83

Asked: Check O=NN(CCCl)C(=O)NC1CCCCC1 too.
Given back: 170

Asked: Check Cc1noc(NS(=O)(=O)c2ccc(N)cc2)c1C too.
Given back: 167.5

Asked: Check CC(C)C(=O)Nc1ccc([N+](=O)[O-])c(C(F)(F)F)c1 [FLUTAMIDE] too.
Given back: 156.67

Asked: Check OC(Cn1cncn1)(Cn1cncn1)c1ccc(F)cc1F too.
Given back: 160.67

Asked: Check C[C@H]1O[C@@H](O[C@H]2[C@@H](O)C[C@H](O[C@H]3[C@@H](O)C[C@H](O[C@H]4CC[C@@]5(C)[C@H](CC[C@@H]6[C@@H]5C[C@@H](O)[C@]5(C)[C@@H](C7=CC(=O)OC7)CC[C@]65O)C4)O[C@@H]3C)O[C@@H]2C)C[C@H](O)[C@@H]1O too.
Given back: 163.67

Asked: Check O=C(O)CCCc1ccc(N(CCCl)CCCl)cc1 too.
Given back: 160.67

###

# Species: Rattus norvegicus
# METHOD: DrugMatrix - Regimen: Daily Repeat
# Type: toxicity, organism-based, Sprague-Dawley
# Set-up: regimen Daily Repeat, gender Male, age 6-8 weeks
# EXPERIMENTAL SETUP: in vivo, po, 0 mg/kg, […], tissue Plasma, route oral GAVAGE, dose level Control, time 14 day, vehicle .5 % CMC
Can you tell me CREATININE for the items I'm about to list?
Give just the numeric value; mg/dL need not be written.

Asked: What value of CREATININE has been reported for the following compound? ClC(Cl)Br [BROMODICHLOROMETHANE]
Given back: 0.22

Asked: Check ClC(Br)Br [DIBROMOCHLOROMETHANE] too.
Given back: 0.22

Asked: Check CCOP(=S)(OCC)Oc1nc(Cl)c(Cl)cc1Cl [CHLORPYRIFOS] too.
Given back: 0.43

Asked: Check COc1ccc(C(=O)Nc2c(Cl)c[n+]([O-])cc2Cl)c2ccc(C(F)(F)F)nc12 [SCH-351591] too.
Given back: 0.45

###

# Organism: Rattus norvegicus
# METHOD: DrugMatrix - Regimen: Daily Repeat
# Assay type: toxicity, organism-based, Sprague-Dawley
# Set-up: regimen Daily Repeat, gender Male, age 6-8 weeks
# EXPERIMENTAL SETUP: in vivo, po, 0 mg/kg, 72 h, tissue Blood, route oral GAVAGE, dose level Control, time 3 day, vehicle 100 % WATER
ASSAY METRIC: MONOCYTE (%)
Give just the numeric value; % need not be written.

Asked: What value of MONOCYTE has been reported for the following compound? C=CCC1(C(C)CCC)C(=O)NC(=O)NC1=O (stereo not given)
Given back: 0.5

Asked: Check c1ccc([C@H]2CN3CCSC3=N2)cc1 too.
Given back: 1.17

Asked: Check Cc1onc(-c2ccccc2Cl)c1C(=O)N[C@@H]1C(=O)N2[C@@H]1SC(C)(C)[C@@H]2C(=O)O too.
Given back: 1.5

Asked: Check CN(C)CCCN1c2ccccc2Sc2ccc(Cl)cc21 too.
Given back: 2

Asked: Check C[C@H](CS)C(=O)N1CCC[C@H]1C(=O)O too.
Given back: 0.67

###

# Organism: Rattus norvegicus
# METHOD: DrugMatrix - Regimen: Daily Repeat
# Assay type: toxicity, organism-based, Sprague-Dawley
# Parameters: regimen Daily Repeat, gender Male, age 6-8 weeks
# EXPERIMENTAL SETUP: in vivo, po, 0 mg/kg, 120 h, tissue Plasma, route oral GAVAGE, dose level Control, time 5 day, […]
ASSAY METRIC: LACTATE DEHYDROGENASE (u/L)
Give just the numeric value; u/L need not be written.

Asked: What value of LACTATE DEHYDROGENASE has been reported for the following compound? C[C@H]1O[C@@H](O[C@H]2[C@@H](O)C[C@H](O[C@H]3[C@@H](O)C[C@H](O[C@H]4CC[C@@]5(C)[C@H](CC[C@@H]6[C@@H]5C[C@@H](O)[C@]5(C)[C@@H](C7=CC(=O)OC7)CC[C@]65O)C4)O[C@@H]3C)O[C@@H]2C)C[C@H](O)[C@@H]1O
Given back: 111.5

Asked: Check CC(C)(Oc1ccc(Cl)cc1)C(=O)O too.
Given back: 408.67

Asked: Check OC(Cn1cncn1)(Cn1cncn1)c1ccc(F)cc1F too.
Given back: 290.67

###

# Species on record: Rattus norvegicus
# METHOD: DrugMatrix - Regimen: Daily Repeat
# Assay type: toxicity, organism-based, Sprague-Dawley
# Parameters: regimen Daily Repeat, gender Male, age 6-8 weeks
# EXPERIMENTAL SETUP: in vivo, po, 0 mg/kg, 120 h, tissue Plasma, route oral GAVAGE, dose level Control, time 5 day, vehicle 100 % WATER
Can you tell me TOTAL PROTEIN for the items I'm about to list?
Give just the numeric value; G/DL need not be written.

Asked: What value of TOTAL PROTEIN has been reported for the following compound? Nc1c2c(nc3ccccc13)CCCC2
Given back: 6.83

Asked: Check COc1cc2nc(N3CCN(C(=O)C4COc5ccccc5O4)CC3)nc(N)c2cc1OC (stereo not given) too.
Given back: 5.98

Asked: Check CNNCc1ccc(C(=O)NC(C)C)cc1 too.
Given back: 6.05

Asked: Check NCCCCCC(=O)O too.
Given back: 6.12

Asked: Check N[C@@H](Cc1ccc(O)c(O)c1)C(=O)O too.
Given back: 5.98

Asked: Check C=CCC1(C(C)CCC)C(=O)NC(=O)NC1=O (stereo not given) too.
Given back: 5.82

Asked: Check Cc1onc(-c2ccccc2Cl)c1C(=O)N[C@@H]1C(=O)N2[C@@H]1SC(C)(C)[C@@H]2C(=O)O too.
Given back: 6.12

Asked: Check CN(C)CCCN1c2ccccc2Sc2ccc(Cl)cc21 too.
Given back: 5.97

Asked: Check C[C@](N)(Cc1ccc(O)c(O)c1)C(=O)O too.
Given back: 6.15

Asked: Check Clc1cccc(Cl)c1N=C1NCCN1 too.
Given back: 6

Asked: Check Cn1cc[nH]c1=S too.
Given back: 6.12

Asked: Check C[C@H]1c2cccc(O)c2C(=O)C2=C(O)[C@]3(O)C(=O)C(C(N)=O)=C(O)[C@@H](N(C)C)[C@@H]3[C@@H](O)[C@@H]21.O too.
Given back: 5.98

Asked: Check CC(O)CO (stereo not given) too.
Given back: 6.12

Asked: Check c1ccc([C@H]2CN3CCSC3=N2)cc1 too.
Given back: 6.12

Asked: Check C[C@H](CS)C(=O)N1CCC[C@H]1C(=O)O too.
Given back: 6
